# Cmax per record follows
ASSAY_DETAILS: Pharmacokinetic property (C(max)) was determined after po administration of 32 mg/kg in mice
Assay type: ADME, organism-based
Set-up: dose 32 mg/kg, route oral
EXPERIMENTAL_CONDITIONS: mouse, in vivo
Quick reminder: number only, in µg/mL, skip the unit.

COMPOUND	Cmax / µg/mL
CCCCCC[C@@H]([C@@H](C)O)n1cnc2c(N)ncnc21	1.1

Lookup: Report measured Cmax; entry is NC(=O)c1cn(C(CO)CCc2ccccc2)cn1 (configuration not stated)
Found: 15.2

###

Listed compounds paired with reported AUC
ASSAY_DETAILS: Pharmacokinetic property (AUC) was determined after po administration of 32 mg/kg in mice
Type: ADME, organism-based
Design: dose 32 mg/kg, route oral
EXPERIMENTAL_CONDITIONS: mouse, in vivo
A complete answer gives the number followed by the unit.

Lookup: Specify reported AUC for the compound shown: NC(=O)c1cn(C(CO)CCc2ccccc2)cn1 (configuration not stated) [FR-221647]
Found: 29900 ng·h/mL

Lookup: Note down AUC recorded for CCCCCC[C@@H]([C@@H](C)O)n1cnc2c(N)ncnc21 [EHNA]
Found: 1000 ng·h/mL

###

MEASURED_ON: Adenosine deaminase (Homo sapiens, UniProt P00813)
Sequence (P00813 whole entry): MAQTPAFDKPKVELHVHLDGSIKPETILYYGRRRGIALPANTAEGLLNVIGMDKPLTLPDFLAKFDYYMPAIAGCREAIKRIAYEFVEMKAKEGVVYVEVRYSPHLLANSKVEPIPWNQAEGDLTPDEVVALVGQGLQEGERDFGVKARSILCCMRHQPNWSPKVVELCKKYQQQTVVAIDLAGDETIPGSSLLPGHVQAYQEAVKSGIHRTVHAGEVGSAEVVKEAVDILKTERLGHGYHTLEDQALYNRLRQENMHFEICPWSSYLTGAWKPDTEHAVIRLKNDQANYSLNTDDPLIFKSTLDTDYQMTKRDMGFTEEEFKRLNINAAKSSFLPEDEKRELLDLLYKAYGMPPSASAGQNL
PROPERTY_MEASURED: Ki (µM)
Value expressed in µM; do not type the unit.

Lookup: Please give measured Ki of the following entry: NC(=O)c1cn(C(CO)c2ccccc2)cn1 (stereo unspecified)
Found: 54

###

ASSAY_DETAILS: Pharmacokinetic property (C(max)) was determined after ip administration of 32 mg/kg in mice
Assay type: ADME, organism-based
Design: dose 32 mg/kg, route intraperitoneal
EXPERIMENTAL_CONDITIONS: mouse, in vivo
PROPERTY_MEASURED: Cmax
The answer should read as a number with its unit following.

COMPOUND	Cmax
CCCCCC[C@@H]([C@@H](C)O)n1cnc2c(N)ncnc21	5900 ng/mL

Lookup: Note down Cmax recorded for `OC[C@H]1O[C@@H](n2cnc3c2NC=NC[C@H]3O)C[C@@H]1O`
Found: 12200 ng/mL

Lookup: Input NC(=O)c1cn(C(CO)CCc2ccccc2)cn1 (stereo not drawn) , output reported Cmax.
Found: 25200 ng/mL
